target: recombinant human ALK enzyme (Homo sapiens, UniProt Q9UM73); test: ALK WT cell free assay (TR-FRET); conditions: 1 μM ATP, 10 point dose response, read-out: IC50 value (in range)
Sequence (Q9UM73 1058-1620 limits assumed): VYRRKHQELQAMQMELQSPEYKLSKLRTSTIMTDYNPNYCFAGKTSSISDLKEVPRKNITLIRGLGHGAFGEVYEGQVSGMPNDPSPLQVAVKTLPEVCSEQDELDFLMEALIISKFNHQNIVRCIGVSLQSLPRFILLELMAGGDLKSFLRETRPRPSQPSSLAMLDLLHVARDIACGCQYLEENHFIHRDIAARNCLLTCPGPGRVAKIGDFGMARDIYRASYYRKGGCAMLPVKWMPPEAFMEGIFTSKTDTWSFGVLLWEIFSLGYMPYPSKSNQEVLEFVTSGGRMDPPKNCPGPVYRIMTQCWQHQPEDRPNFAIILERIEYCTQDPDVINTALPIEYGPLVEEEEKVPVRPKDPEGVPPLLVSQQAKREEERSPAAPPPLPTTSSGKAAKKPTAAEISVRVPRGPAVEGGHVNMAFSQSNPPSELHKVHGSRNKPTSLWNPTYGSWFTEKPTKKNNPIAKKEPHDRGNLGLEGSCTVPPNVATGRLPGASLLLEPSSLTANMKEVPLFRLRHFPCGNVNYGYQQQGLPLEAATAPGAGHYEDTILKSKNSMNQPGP
pIC50: −log10 of the molar value.
Consider the following compounds; for each one, report its pIC50.

These recorded examples may help you get a feel for the data.
>>> recorded_measurement("Cn1cc(-c2cnc3[nH]cc(-c4cnn(Cc5cc(F)cc(F)c5)c4)c3c2)cn1")
"> 7.30"
>>> recorded_measurement("Cn1cc(-c2cnc3[nH]cc(-c4cnn(Cc5cccc(C#N)c5)c4)c3c2)cn1")
"> 7.30"
>>> recorded_measurement("Cn1cc(-c2cnc3[nH]cc(-c4cnn(CCc5ccccc5)c4)c3c2)cn1 [Example-20A]")
"6.70 to 7.30"

Given OCCn1cc(-c2cnc3[nH]cc(-c4cnn(Cc5cccc(F)c5)c4)c3c2)cn1 , state its recorded pIC50.
> 7.30

###

Consider the following compounds; for each one, report its inhibition at 1 µM.
target: recombinant human ALK enzyme (Homo sapiens, UniProt Q9UM73); construct: purchased Carna Biosciences 08-518; assay: ALK WT cell free assay (TR-FRET); type: biochemical; conditions: compound 1 μM, 1 μM ATP, 30 min pre-incubation, read-out: Percentage Inhibition 1 μM
Answers are plain numbers, in %.

>>> recorded_measurement("Cn1cc(-c2cnc3[nH]cc(-c4cnn(Cc5cccc(C#N)c5)c4)c3c2)cn1 [Example-5]")
95
>>> recorded_measurement("Cn1cc(-c2cnc3[nH]cc(-c4cnn(CCc5ccccc5)c4)c3c2)cn1 [Example-20A]")
92
>>> recorded_measurement("Cn1cc(-c2cnc3[nH]cc(-c4cnn(Cc5cccc(F)c5)c4)c3c2)cn1 [Example-3]")
100
>>> recorded_measurement("Cn1cc(-c2cnc3[nH]cc(-c4cnn(Cc5ccccc5)c4)c3c2)cn1 [Example-8]")
98
>>> recorded_measurement("Cc1nn(Cc2cccc(F)c2)c(C)c1-c1c[nH]c2ncc(-c3cnn(CCO)c3)cc12 [Example-29]")
100

Batch request: inhibition at 1 µM per item, same order as input.
1. Cc1c(-c2c[nH]c3ncc(-c4cnn(C5CCNCC5)c4)cc23)cnn1Cc1cccc(F)c1 [Example-27]
2. Cc1nn(Cc2cccc(F)c2)c(C)c1-c1c[nH]c2ncc(-c3cnn(C4CCNCC4)c3)cc12 [Example-24]

98
94

###

target: recombinant human ALK enzyme (Homo sapiens); experiment: ALK WT cell free assay (TR-FRET); conditions: 1 μM ATP, 10 point dose response, read-out: IC50 value (in range)
pIC50: −log10 of the molar value.
METRIC NAME: pIC50

Batch request: pIC50 per item, same order as input.
1. C[C@H](O)CN1CCC(n2cc(-c3cnc4[nH]cc(-c5cnn(Cc6cccc(F)c6)c5)c4c3)cn2)CC1
2. OCCCn1cc(-c2cnc3[nH]cc(-c4cnn(Cc5cccc(F)c5)c4)c3c2)cn1
3. Cn1cc(-c2cnc3[nH]cc(-c4cnn(Cc5ccc(F)cc5)c4)c3c2)cn1
4. Cc1nn(Cc2cc(Cl)ccc2F)cc1-c1c[nH]c2ncc(-c3cnn(C)c3)cc12
5. Fc1cccc(Cn2cc(-c3c[nH]c4ncc(-c5cnn(C6CCNCC6)c5)cc34)cn2)c1
6. Cc1nn(Cc2cccc(O)c2)c(C)c1-c1c[nH]c2ncc(-c3cnn(C4CCNCC4)c3)cc12

1. > 7.30
2. > 7.30
3. 6.70 to 7.30
4. < 6.70
5. > 7.30
6. 6.70 to 7.30

Given Cn1cc(-c2cnc3[nH]cc(-c4cnn(Cc5cccc(Cl)c5)c4)c3c2)cn1 , state its recorded pIC50.
> 7.30

###

molecular target: recombinant human ALK enzyme (Homo sapiens); construct: purchased Carna Biosciences 08-518; experiment: ALK WT cell free assay (TR-FRET); assay type: biochemical; conditions: compound 100 nM, 1 μM ATP, 30 min pre-incubation, read-out: Percentage Inhibition 100 nM
METRIC NAME: inhibition at 0.1 µM (%)
One number for each entry, in %.

Batch request: inhibition at 0.1 µM per item, same order as input.
1. c1ccc(CCn2cc(-c3c[nH]c4ncc(-c5cnn(C6CCNCC6)c5)cc34)cn2)cc1
2. Cn1cc(-c2cnc3[nH]cc(-c4cn(Cc5cccc(F)c5)nc4C(F)(F)F)c3c2)cn1
3. Cc1nn(Cc2cccc(F)c2)cc1-c1c[nH]c2ncc(-c3cnn(C4CCNCC4)c3)cc12

59
62
79

###

target: recombinant human ALK enzyme (Homo sapiens, UniProt Q9UM73); construct: purchased Carna Biosciences 08-518; assay: ALK WT cell free assay (TR-FRET); assay type: biochemical; settings: compound 100 nM, 1 μM ATP, 30 min pre-incubation, read-out: Percentage Inhibition 100 nM
Rule: inhibition at 0.1 µM of 80% or more gives 1; anything lower gives -1.

Take a look at these entries with their results.
>>> group("Cc1nn(Cc2cccc(F)c2)c(C)c1-c1c[nH]c2ncc(-c3cnn(CCO)c3)cc12 [Example-29]")
-1
>>> group("Fc1cc(F)cc(Cn2cc(-c3c[nH]c4ncc(-c5cnn(C6CCNCC6)c5)cc34)cn2)c1 [Example-22]")
1
>>> group("OCCn1cc(-c2cnc3[nH]cc(-c4cnn(Cc5cccc(F)c5)c4)c3c2)cn1 [Example-28]")
1

# check: inhibition at 0.1 µM of OCCCn1cc(-c2cnc3[nH]cc(-c4cnn(Cc5cccc(F)c5)c4)c3c2)cn1 [Example-30] is greater than or equal to 80%
1

One more molecule: C[C@H](O)CN1CCC(n2cc(-c3cnc4[nH]cc(-c5cnn(Cc6cccc(F)c6)c5)c4c3)cn2)CC1 [Example-32]
1

One more molecule: Cn1cc(-c2cnc3[nH]cc(-c4cnn(Cc5cccc([N+](=O)[O-])c5)c4)c3c2)cn1 [Example-16]
-1

One more molecule: Cc1nn(Cc2cccc(F)c2)c(C)c1-c1c[nH]c2ncc(-c3cnn(C4CCNCC4)c3)cc12 [Example-24]
-1

###

Molecular target: recombinant human ALK enzyme (Homo sapiens, UniProt Q9UM73)
Construct: purchased Carna Biosciences 08-518
Assay: ALK WT cell free assay (TR-FRET)
Format: biochemical
Details: compound 1 μM, 1 μM ATP, 30 min pre-incubation, read-out: Percentage Inhibition 1 μM
Protocol: The ALK WT cell free assay was set up to evaluate the effects of these compounds as inhibitors of ALK enzyme. […] TR-FRET (Time resolved fluorescence resonance energy transfer) detection technology was used for the read out. […] The TR-FRET signal (Excitation at 340 nm, Emission at 615 nm and 665 nm) was read with 50 μs delay time on Victor^3 V fluorimeter. The data is calculated using the ratio of reading at 665 nm to 615 nm. […]
Consider the following compounds; for each one, report its inhibition at 1 µM.
One number for each entry, in %.

>>> recorded_measurement("c1ccc(CCn2cc(-c3c[nH]c4ncc(-c5cnn(C6CCNCC6)c5)cc34)cn2)cc1 [Example-31]")
95
>>> recorded_measurement("Cn1cc(-c2cnc3[nH]cc(-c4cnn(Cc5cccc(N)c5)c4)c3c2)cn1 [Example-21]")
90
>>> recorded_measurement("Cc1nn(Cc2cccc(O)c2)c(C)c1-c1c[nH]c2ncc(-c3cnn(C4CCNCC4)c3)cc12 [Example-25]")
95
>>> recorded_measurement("Cn1cc(-c2cnc3[nH]cc(-c4cn(Cc5cccc(F)c5)nc4C(F)(F)F)c3c2)cn1 [Example-17]")
89
>>> recorded_measurement("Cc1nn(Cc2cccc(F)c2)cc1-c1c[nH]c2ncc(-c3cnn(C4CCNCC4)c3)cc12 [Example-26]")
96

Batch request: inhibition at 1 µM per item, same order as input.
1. Cn1cc(-c2cnc3[nH]cc(-c4cnn(Cc5cc(F)ccc5F)c4)c3c2)cn1 [Example-10]
2. Cn1cc(-c2cnc3[nH]cc(-c4cnn(Cc5ccc(C(C)(C)C)cc5)c4)c3c2)cn1 [Example-9]
3. Cn1cc(-c2cnc3[nH]cc(-c4cnn(Cc5cc(F)cc(F)c5)c4)c3c2)cn1 [Example-14]

98
21
100

###

Target: recombinant human ALK enzyme (Homo sapiens, UniProt Q9UM73)
Construct: purchased Carna Biosciences 08-518
Experiment: ALK WT cell free assay (TR-FRET)
Format: biochemical
Conditions: compound 100 nM, 1 μM ATP, 30 min pre-incubation, read-out: Percentage Inhibition 100 nM
Protocol: The ALK WT cell free assay was set up to evaluate the effects of these compounds as inhibitors of ALK enzyme. […] TR-FRET (Time resolved fluorescence resonance energy transfer) detection technology was used for the read out. […] The TR-FRET signal (Excitation at 340 nm, Emission at 615 nm and 665 nm) was read with 50 μs delay time on Victor^3 V fluorimeter. The data is calculated using the ratio of reading at 665 nm to 615 nm. […]
Consider the following molecules; for each one, report its inhibition at 0.1 µM.
Answers are plain numbers, in %.

Batch request: inhibition at 0.1 µM per item, same order as input.
1. Cc1nn(Cc2cccc(F)c2)c(C)c1-c1c[nH]c2ncc(-c3cnn(C)c3)cc12
2. Cn1cc(-c2cnc3[nH]cc(-c4cn(Cc5cccc(F)c5)nc4C(C)(C)C)c3c2)cn1
3. Cc1nn(Cc2cccc(O)c2)c(C)c1-c1c[nH]c2ncc(-c3cnn(C4CCNCC4)c3)cc12
4. Cn1cc(-c2cnc3[nH]cc(-c4cnn(Cc5cccc(O)c5)c4)c3c2)cn1
5. Cc1nn(Cc2cc(F)cc(F)c2)c(C)c1-c1c[nH]c2ncc(-c3cnn(C)c3)cc12
6. Cc1nn(Cc2cc(Cl)ccc2F)cc1-c1c[nH]c2ncc(-c3cnn(C)c3)cc12
7. Cc1c(-c2c[nH]c3ncc(-c4cnn(C5CCNCC5)c4)cc23)cnn1Cc1cccc(F)c1

1: 79; 2: 6; 3: 70; 4: 81; 5: 80; 6: 45; 7: 79

Given Cn1cc(-c2cnc3[nH]cc(-c4cnn(CCc5ccccc5)c4)c3c2)cn1 [Example-20A] , state its recorded inhibition at 0.1 µM.
53
